- Test system: TK-10 renal
- measurement_notes: NCI-60 one-dose screen, 48 h (100 = growth as untreated, 0 = no growth, -100 = all killed)
- measurement_setup: 10 µM unless noted
The panel holds about 83,000 compounds, 20% with a hit somewhere; the sample as a whole holds those more often.
Output YES for records whose growth is lower than 80%, NO for records at or above 80%.

[
  {
    "structure_as_smiles": "Cc1[nH]c(-c2nc3ccccc3[nH]2)c(C)c1C(=O)N1CCOCC1",
    "category": "NO"
  },
  {
    "structure_as_smiles": "C/C(=N\\NC(=O)Cn1c(-c2ccc(S(C)(=O)=O)cc2)nc2cc(Cl)ccc21)c1ccc(Cl)cc1",
    "category": "NO"
  },
  {
    "structure_as_smiles": "NC(=O)c1c(NC(=O)c2ccccn2)sc2c1CCC(=O)C2",
    "category": "YES"
  }
]

Exam item: Lab note: growth threshold 80%. Does this molecule come in strictly under it? COc1cc(C(=O)/C=C/c2c(C(F)(F)F)nc3ccccn23)cc(OC)c1OC
Marked response: YES

Exam item: Lab note: growth threshold 80%. Does this molecule come in strictly under it? Nc1c(-c2nc3ccc(Br)cc3c(=O)[nH]2)nnn1-c1ccccc1
Marked response: NO

----------
- Test system: SR leukemia
- measurement_notes: NCI-60 one-dose screen, 48 h (100 = growth as untreated, 0 = no growth, -100 = all killed)
- measurement_setup: 10 µM unless noted
Compounds without any hit were thinned out: in the full panel of roughly 83,000, 20% have a hit. Activity calls are given as the source filed them. The calls were made as follows: active = growth percent below 10; inactive = the rest.
experimental_endpoint: growth

Known results for compounds:
[
  {
    "compound": "CN(C)c1ccc2cc(-c3ccccc3F)c(N)nc2c1",
    "growth": "6.09% (active)"
  },
  {
    "compound": "COc1cc(-c2ccc(-c3ccc(C(=N)N)nc3)s2)cc(OC)c1OC",
    "growth": "6.31% (active)"
  },
  {
    "compound": "N[C@@H]1CCC[C@H]1NCCCCN1C(=O)c2cccc3cccc(c23)C1=O",
    "growth": "18.1% (inactive)"
  }
]

Exam item: Give growth (SR leukemia) of the following compound: COc1ccc(-n2sc(=O)n(Cc3ccc(COC(=O)C(C)c4ccc(CC(C)C)cc4)cc3)c2=O)cc1 (stereo unspecified)
Marked response: -27.4% (active)

Exam item: Give growth (SR leukemia) of the following compound: CC(=O)Nc1nccs1
Marked response: 111% (inactive)

Exam item: Give growth (SR leukemia) of the following compound: N#Cc1cnn2c(-c3ccc(Cl)cc3)nc(NC3CC3)nc12
Marked response: 86.1% (inactive)

Exam item: Give growth (SR leukemia) of the following compound: C=CC(=O)N[C@@H](Cc1ccc(-c2cc(Cl)cc(Cl)c2)cc1)[C@@H](O)[C@H](O)C(=O)O
Marked response: 92.8% (inactive)

Exam item: Give growth (SR leukemia) of the following compound: Cc1nn(-c2ccccc2)c2c1C(c1ccc([N+](=O)[O-])cc1)C(C#N)=C(N)O2 (stereo unspecified)
Marked response: 91.5% (inactive)

Exam item: Give growth (SR leukemia) of the following compound: COc1ccc(Cn2cnc3cc(C(=O)Nc4cccc5ccccc45)ccc32)c(OC)c1
Marked response: -17% [30 µM] (active)

Exam item: Give growth (SR leukemia) of the following compound: OC(CBr)c1ccnc2ccccc12 (stereo unspecified)
Marked response: 98.7% (inactive)

Exam item: Give growth (SR leukemia) of the following compound: COC(=O)Nc1nc2ccc(C(=O)C3CC3)cc2[nH]1
Marked response: -21.7% (active)

----------
- Test system: MALME-3M melanoma
- measurement_notes: NCI-60 one-dose screen, 48 h (100 = growth as untreated, 0 = no growth, -100 = all killed)
- measurement_setup: 10 µM unless noted
The panel holds about 83,000 compounds, 20% with a hit somewhere; the sample as a whole holds those more often.
Output MET for records whose growth is lower than 50%, NOT MET for records at or above 50%.

[
  {
    "molecule": "O=C1NN(C(=O)c2ccc(O)cc2)C(c2ccccc2)=N/C1=C\\c1cn(-c2ccccc2)nc1-c1ccccc1",
    "category": "NOT MET"
  },
  {
    "molecule": "CCOc1cc(N)ccc1C(=O)NCCCN(CC)CC",
    "category": "NOT MET"
  },
  {
    "molecule": "Cc1ccc(NC(=O)C(Cl)Cl)cc1",
    "category": "NOT MET"
  },
  {
    "molecule": "CC(=O)Nc1nccs1",
    "category": "NOT MET"
  },
  {
    "molecule": "CNCCNc1nc2ccccc2c2c(=O)c3cc(F)ccc3oc12",
    "category": "NOT MET"
  }
]

Now for a further molecule.
Exam item: Lab note: growth threshold 50%. Does this molecule come in strictly under it? CN(C)c1ccc(/C=C2\C=C(c3ccccc3)N(CCc3ccccc3)C2=O)cc1
Marked response: NOT MET

----------
- Tested on: LOX IMVI melanoma
- measurement_notes: NCI-60 one-dose screen, 48 h
- measurement_setup: 10 µM unless noted
Compounds without any hit were thinned out: in the full panel of roughly 83,000, 20% have a hit. The source made the active and inactive calls. How the source made its calls: active means growth percent below 10; inactive means the rest.
// allowed return values: active, inactive

# count of solved cases: 2
[
  {
    "structure_as_smiles": "Cc1c(C(=O)O)nnn1-c1nccs1",
    "system": "LOX IMVI melanoma",
    "category": "inactive"
  },
  {
    "structure_as_smiles": "COc1ccc(/C=C2\\COc3ccc(O)cc3C2=O)cc1OC",
    "system": "LOX IMVI melanoma",
    "category": "inactive"
  }
]

Exam item: Per the records of this test, what outcome belongs to O=C1NCC(=O)N(Cc2ccco2)[C@H]1Cc1ccccc1 ?
Marked response: inactive

Exam item: Per the records of this test, what outcome belongs to CC(C)c1ccc(NC(=O)Cc2ccc(Nc3ncnc4cc(-c5cnn(CCN(C)C)c5)ccc34)cc2)cc1 ?
Marked response: active

Exam item: Per the records of this test, what outcome belongs to COc1cccc(-c2nc3sccn3c2-c2ccnc(NCCNS(=O)(=O)c3c(Cl)cccc3Cl)c2)c1 ?
Marked response: inactive

----------
- Tested on: NCI-H522 lung
- measurement_notes: NCI-60 one-dose screen, 48 h
- measurement_setup: 10 µM unless noted
- Method: Growth inhibition of the NCI-H522 human Non-Small Cell Lung tumor cell line is measured as a screen for anti-cancer activity. Cells are grown in 96 well plates and exposed to the test compound for 48 hours. Compounds are tested at a single concentration, which is 10^-5 M for most compounds. The reported endpoint is percent growth (GI% or GIPRCNT), where numbers from 0 - 100% represent growth inhibition, and numbers from -100% - 0 represent cell death. […]
The panel holds about 83,000 compounds, 20% with a hit somewhere; the sample as a whole holds those more often. Activity calls are given as the source filed them. Rule for the calls: active = growth percent below 10; inactive = the rest.
// allowed return values: active, inactive

[
  {
    "molecule": "CCCCNCC(=O)Nc1ccc(C(=O)OCC)cc1",
    "system": "NCI-H522 lung",
    "category": "inactive"
  },
  {
    "molecule": "CNC(=O)c1cc(Oc2ccc3nc(Nc4cc(Cl)cc(Cl)c4)ccc3c2)ccn1",
    "system": "NCI-H522 lung",
    "category": "inactive"
  },
  {
    "molecule": "CCN(CC)CC(=O)Nc1cccc(C(=O)OC(C)C)c1",
    "system": "NCI-H522 lung",
    "category": "inactive"
  }
]

Exam item: Per the records of this test, what outcome belongs to O=C(CCc1nc(-c2cccc(Cl)c2)no1)Nc1ccccn1 ?
Marked response: inactive

Exam item: Per the records of this test, what outcome belongs to N#Cc1c(Oc2ccc([N+](=O)[O-])cc2)nc2sc3cc(Cl)ccc3n2c1=N ?
Marked response: inactive

----------
- Test system: HT29 colon
- measurement_notes: NCI-60 one-dose screen, 48 h
- measurement_setup: 10 µM unless noted
The panel holds about 83,000 compounds, 20% with a hit somewhere; the sample as a whole holds those more often. Activity calls are given as the source filed them. The calls were made as follows: active = growth percent below 10; inactive = the rest.
// allowed return values: 1.0 for active, 0.0 for inactive

[
  {
    "molecule": "CC(C)(C)OC(=O)N1Cc2cc3ccccc3nc2C1CO (stereo not given)",
    "category": 0.0
  },
  {
    "molecule": "CCNCCNc1cc(-c2ccc(F)cc2)c(C#N)c2nc3ccccc3n12",
    "category": 0.0
  },
  {
    "molecule": "CC(C)(C)c1ccc(C(=O)Nc2sc3c(c2C(N)=O)CCC(=O)C3)cc1",
    "category": 1.0
  },
  {
    "molecule": "O=c1[nH]nc(-c2ccc(Cl)cc2)cc1Cc1ccccc1",
    "category": 0.0
  }
]

Now for a further molecule.
Exam item: Per the records of this test, what outcome belongs to CCCCCCCC/C=C\CCCCCCCC(=O)Oc1cccc2cccnc12 ?
Marked response: 0.0
